Test system: NCI-H460
Assay: NCI tumour cell line growth inhibition, 48 h
Active and inactive are the calls of the source. Rule as the data show it: active = GI50 up to about 1.1 µM and inactive = higher. Residues, ends and D or L forms follow the SMILES beside them. *: point of attachment. Boc = CC(C)(C)OC(=O)*
result-type: GI50

Solved entries (count: 2):
molecule	result-type	val
CN1C(=O)C(=CN)C(=O)N(C)C1=O	GI50	> 100 µM (inactive)
CC(C)(C)OC(=O)NC(Cc1ccc(O)cc1)C(=O)NC(CCCCN)C(=O)O (stereo not drawn) (Boc-Tyr-Lys-OH; configuration not given here)	GI50	25.2 µM (inactive)

I would be grateful if you could provide GI50 for each of the following entries.
1. COc1ccc(OC)c(/C=N/N=C2\C(=O)Nc3c(Cl)cc(Cl)cc32)c1
2. S=C(/N=C1/NCC(CN2CCN(c3ccccc3)CC2)O1)Nc1ccccc1 (stereo not drawn)

Result:
63.5 µM (inactive)
23.3 µM (inactive)

I would be grateful if you could provide GI50 for each of the following entries.
1. CCC(CCCN)Nc1cc(OC)cc2c(C)ccnc12 (stereo not drawn)
2. COC(=O)C(CCCCN)NC(C)=O.Cc1ccc(C(=O)Nc2ccc(S(=O)(=O)O)c3cc(S(=O)(=O)O)cc(S(=O)(=O)O)c23)cc1NC(=O)c1cccc(NC(=O)Nc2cccc(C(=O)Nc3cc(C(=O)Nc4ccc(S(=O)(=O)O)c5cc(S(=O)(=O)O)cc(S(=O)(=O)O)c45)ccc3C)c2)c1
3. Cc1ccc(NC(=O)CCC/C(CC(=O)c2ccc(Br)cc2)=N/NC(=O)CC#N)cc1

Result:
17.7 µM (inactive)
> 50 µM (inactive)
> 100 µM (inactive)

Problem: Input COc1ccc(/C(Cl)=C(\C=O)c2ccc(F)cc2)cc1OC , output reported GI50.
Result: 19.3 µM (inactive)

###

Tested on: UACC-62
Test: NCI tumour cell line growth inhibition, 48 h
Active and inactive are the calls of the source. No stated cut-off is given here; in the data, active = GI50 up to about 1.1 µM and inactive = higher.
For each of the compounds below, state its GI50.

>>> print(df.to_string())
                            compound                 val
0  COc1ccc(OC)c2c(=O)c3ccccc3[nH]c12  43.6 µM (inactive)

I would be grateful if you could provide GI50 for each of the following entries.
1. CCOC(=O)[C@H]1C[C@@H](C(=O)c2ccccc2)N2N=C(c3ccc(Br)cc3)C=C[C@H]12
2. CCOC(=O)N1CCN(P(=O)(Nc2ccc3[nH]c(NC(=O)OC)nc3c2)Oc2ccccc2)CC1 (stereo not given)
3. Cc1nc2ccccc2c(=O)n1NC(=O)c1ccccc1O
4. CCOC(=O)c1nc2c(Cl)c3ncccc3cc2[nH]c1=O

Result:
1: > 100 µM (inactive); 2: 51.1 µM (inactive); 3: > 100 µM (inactive); 4: 14.6 µM (inactive)

###

System: HT-29
Assay: NCI tumour cell line growth inhibition, 48 h
Activity calls are given as the source filed them. Cut-off read from the data, not from the text of the source: active = GI50 up to about 1.1 µM and inactive = higher.
For each of the molecules below, state its GI50.

Solved entries (count: 6):
>>> df
                                   molecule                  val
0  Cc1[nH]c2ccccc2c1C(=O)CC1(O)C(=O)Nc2ccccc21 (stereo unspecified)  > 100 µM (inactive)
1             CC(C)=CCC/C(C)=C\CC/C(C)=C/CO   19.7 µM (inactive)
2                  Cn1ccnc1CCc1ccc(Cl)cc1Cl   79.4 µM (inactive)
3  O=C(CCc1nnc2s/c(=C\c3ccc(Cl)c(Cl)c3)c(=O)n12)Nc1ccc(Cl)c(Cl)c1  > 100 µM (inactive)
4     S=c1[nH]c2c(Cl)c(Cl)c(Cl)c(Cl)c2[nH]1     24 µM (inactive)
5  COc1cc2c(cc1OC)C1C=NC(C(=O)O)(C2)c2ccccc21 (stereo unspecified)  > 100 µM (inactive)

I would be grateful if you could provide GI50 for each of the following entries.
1. Cc1cc(C)nc(NS(=O)(=O)c2ccc(NNC(=O)c3cccc4c(=O)c5ccccc5[nH]c34)cc2)n1
2. CC12CC1C(c1cccc([N+](=O)[O-])c1)(c1cccc([N+](=O)[O-])c1)N=N2 (stereo unspecified)
3. N#CC(C#N)=C1NC(=O)C(c2ccccc2)C(=O)N1 (stereo unspecified)
4. CC1(C)C2CCC1C(=O)C(C=O)C2 (stereo unspecified)
5. C=C1CCCC(C)(C)[C@H]1C/C=C1\CCOC1=O

Result:
1: 66.5 µM (inactive); 2: 28 µM (inactive); 3: > 100 µM (inactive); 4: > 100 µM (inactive); 5: 13.9 µM (inactive)

The measured values listed here are drawn from ChEMBL document CHEMBL1201862.
